molecular target: ActRII-ECD (mouse); test: SPR; Biacore 2000; receptor ECDs immobilised on a CM5 chip by primary amine coupling, ligands flowed over; at least five concentrations plus zero; global 1:1 Langmuir binding with mass transfer, KD calculated as koff/kon
Sequence (P27038 whole entry, the tested form may be a part): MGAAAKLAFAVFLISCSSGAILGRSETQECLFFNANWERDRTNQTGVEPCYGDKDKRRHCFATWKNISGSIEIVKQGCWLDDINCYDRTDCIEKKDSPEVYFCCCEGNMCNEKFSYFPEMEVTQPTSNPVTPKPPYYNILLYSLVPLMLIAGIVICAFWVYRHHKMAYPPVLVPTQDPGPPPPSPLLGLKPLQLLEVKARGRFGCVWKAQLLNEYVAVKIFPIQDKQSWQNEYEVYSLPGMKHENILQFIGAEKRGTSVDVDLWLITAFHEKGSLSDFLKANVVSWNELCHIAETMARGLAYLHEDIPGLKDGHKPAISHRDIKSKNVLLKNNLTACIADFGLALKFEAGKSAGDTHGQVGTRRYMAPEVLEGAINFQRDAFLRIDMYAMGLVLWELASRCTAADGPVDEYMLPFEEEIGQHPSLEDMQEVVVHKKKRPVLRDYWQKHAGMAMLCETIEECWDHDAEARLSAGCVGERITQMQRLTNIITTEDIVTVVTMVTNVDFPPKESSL
OBSERVATION_TYPE: pKd
Please express pKd as -log10 of the molar concentration.

QUERY: Suppose we examine the substance BMP-2 (BBBBBB) (from UniProt P12643 283-396) (ligand) ; what pKd value has been reported?
RESULT: 7.43
